- PROTOCOL_DETAILS: Water confinement property test (barrier property)
- Format: physicochemical
- CONDITION_NOTES: 80 wt % aqueous solution, 0.01 mL/cm^2 on filter paper, 40° C. and 25% RH, 24 hours
OUTCOME_MEASURE: Water evaporation inhibition rate (%)
Give the value in % but do not write % after it.

What does the record list as Water evaporation inhibition rate for CC(CO)(CO)CO [Compound C77] ? 35.4

Also, CC(CO)(CO)CO [Compound C54] please. 30.3

Also, NC(CO)(CO)CO.O=C1OC(C(O)CO)C(O)=C1O (centres unmarked) [Compound C49] please. 32.19

Also, CC(C)(CO)CO [Compound C47] please. 34.8

Also, CC(N)(CO)CO.NCCCCCC(=O)O [Compound C76] please. 35.7

Also, NC(CO)(CO)CO.O=C(O)CC(O)(CC(=O)O)C(=O)O [Compound C82] please. 35.8

Also, CS(=O)(=O)O.NC(CO)(CO)CO [Compound C83] please. 31.3

Also, CC(CO)(CO)CO [Compound C50] please. 39.1

Also, CCCC[N+](CCCC)(CCCC)CCCC.[Br-] [Compound A54, tetrabutylammonium bromide, reference compound] please. 29.5

Also, CC(CO)(CO)CO [Compound C55] please. 34.1

Also, CC(C)(C)CO [Compound C43] please. 39.7

Also, CC(CO)(CO)CO [Compound C53] please. 34.6

Also, CC(CO)(CO)CO [Compound C51] please. 35.6

Also, OCC(O)CO [Compound A52, glycerin, reference compound] please. 16.2

Also, CC(CO)(CO)CO [Compound C52] please. 36.8

Also, CCCCn1cc[n+](C)c1.F[B-](F)(F)F [Compound C63, reference compound] please. 25.7

Also, CC(C)(CO)CO [Compound C65] please. 39.4
